study_target: PI3Kγ (Homo sapiens (Human))
Sequence (P48736 whole entry): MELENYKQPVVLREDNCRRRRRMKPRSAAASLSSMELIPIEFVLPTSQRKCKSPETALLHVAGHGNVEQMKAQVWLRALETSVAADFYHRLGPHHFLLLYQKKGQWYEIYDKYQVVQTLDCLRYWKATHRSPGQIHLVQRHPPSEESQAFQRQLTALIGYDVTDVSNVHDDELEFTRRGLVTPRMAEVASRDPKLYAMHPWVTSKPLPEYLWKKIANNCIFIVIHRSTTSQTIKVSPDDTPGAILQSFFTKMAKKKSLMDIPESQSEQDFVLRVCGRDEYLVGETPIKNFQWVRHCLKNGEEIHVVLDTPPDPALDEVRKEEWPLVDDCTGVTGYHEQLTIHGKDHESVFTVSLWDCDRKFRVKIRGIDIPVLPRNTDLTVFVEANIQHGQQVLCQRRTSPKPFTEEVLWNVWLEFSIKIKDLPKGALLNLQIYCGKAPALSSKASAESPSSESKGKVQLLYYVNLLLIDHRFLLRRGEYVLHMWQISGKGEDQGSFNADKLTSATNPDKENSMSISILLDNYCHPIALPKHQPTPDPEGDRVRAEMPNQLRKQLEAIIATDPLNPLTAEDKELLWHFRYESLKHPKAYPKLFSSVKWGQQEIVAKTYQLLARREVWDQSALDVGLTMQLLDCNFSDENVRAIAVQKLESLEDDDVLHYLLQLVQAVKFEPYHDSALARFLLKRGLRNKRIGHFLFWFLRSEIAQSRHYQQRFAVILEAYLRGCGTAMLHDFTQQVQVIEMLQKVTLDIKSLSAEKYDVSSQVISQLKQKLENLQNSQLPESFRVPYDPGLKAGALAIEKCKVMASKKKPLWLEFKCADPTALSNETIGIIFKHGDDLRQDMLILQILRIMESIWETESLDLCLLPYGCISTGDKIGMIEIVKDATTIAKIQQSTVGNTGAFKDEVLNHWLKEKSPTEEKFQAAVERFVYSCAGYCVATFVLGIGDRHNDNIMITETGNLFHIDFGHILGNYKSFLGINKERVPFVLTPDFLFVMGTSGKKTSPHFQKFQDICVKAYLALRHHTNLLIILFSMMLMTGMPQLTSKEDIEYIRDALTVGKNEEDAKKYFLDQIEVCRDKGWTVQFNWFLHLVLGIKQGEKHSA
assay_notes: Biochemical assay of PI3K selectivity (PI3Kγ)
experimental_setup: ratio of IC50 for PI3Kγ relative to PI3Kδ
value_type: Gamma-Delta Ratio
Form: value (number only, do not type unit).

Please review the following examples before continuing.
CCC(Nc1ncnc2[nH]cnc12)c1nc2ccccc2c(=O)n1-c1ccccc1 (stereo not shown); 66
CCC(Nc1ncnc2[nH]cnc12)c1nc2cccc(Cl)c2c(=O)n1-c1c(F)cccc1F (stereo not shown); 38

Query block: # lookup: PI3Kγ (Homo sapiens (Human)) Gamma-Delta Ratio, key = CC[C@H](Nc1ncnc2[nH]cnc12)c1nc2cccc(Cl)c2c(=O)n1-c1cc(F)cc(F)c1
Result block: 67

Query block: # lookup: PI3Kγ (Homo sapiens (Human)) Gamma-Delta Ratio, key = CCC(Nc1ncnc2[nH]cnc12)c1nc2cccc(C)c2c(=O)n1-c1cc(F)cc(F)c1 (stereo not shown)
Result block: 62

* * *

Each record here notes measured Beta-Delta Ratio.
study_target: UniProt P42338
Sequence (P42338 2-1070, one chain of several): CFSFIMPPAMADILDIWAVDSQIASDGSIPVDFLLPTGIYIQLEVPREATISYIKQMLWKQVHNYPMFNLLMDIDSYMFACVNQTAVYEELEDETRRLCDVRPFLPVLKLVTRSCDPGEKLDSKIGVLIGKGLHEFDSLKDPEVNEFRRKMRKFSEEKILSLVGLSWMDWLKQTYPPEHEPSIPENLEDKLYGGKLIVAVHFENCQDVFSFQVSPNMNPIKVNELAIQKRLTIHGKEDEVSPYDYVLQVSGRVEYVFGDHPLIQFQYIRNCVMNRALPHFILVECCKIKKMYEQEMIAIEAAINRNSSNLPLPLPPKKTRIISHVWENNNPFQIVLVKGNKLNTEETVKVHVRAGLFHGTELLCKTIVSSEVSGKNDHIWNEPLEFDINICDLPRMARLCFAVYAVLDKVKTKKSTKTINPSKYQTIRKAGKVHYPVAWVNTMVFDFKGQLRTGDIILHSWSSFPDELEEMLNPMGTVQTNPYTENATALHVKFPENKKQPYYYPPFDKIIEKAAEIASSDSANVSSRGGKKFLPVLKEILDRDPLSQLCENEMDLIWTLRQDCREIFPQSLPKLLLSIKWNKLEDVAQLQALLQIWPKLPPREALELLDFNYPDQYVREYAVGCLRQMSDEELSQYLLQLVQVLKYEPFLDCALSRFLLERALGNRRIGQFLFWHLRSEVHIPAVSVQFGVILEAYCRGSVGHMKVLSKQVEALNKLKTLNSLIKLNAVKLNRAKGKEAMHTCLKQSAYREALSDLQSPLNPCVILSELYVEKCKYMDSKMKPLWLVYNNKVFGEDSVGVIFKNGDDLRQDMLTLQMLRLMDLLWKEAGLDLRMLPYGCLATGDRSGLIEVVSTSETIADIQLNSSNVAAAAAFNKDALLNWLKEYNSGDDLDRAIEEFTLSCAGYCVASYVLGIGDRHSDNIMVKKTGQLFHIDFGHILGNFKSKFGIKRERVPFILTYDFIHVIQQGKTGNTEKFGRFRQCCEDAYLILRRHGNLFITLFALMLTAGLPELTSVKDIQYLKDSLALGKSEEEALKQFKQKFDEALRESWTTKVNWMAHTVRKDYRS
assay_notes: Biochemical assay of PI3K selectivity (PI3Kβ)
experimental_setup: ratio of IC50 for PI3Kβ relative to PI3Kδ
Form: value (number only, do not type unit).

Please review the following examples before continuing.
CC[C@H](Nc1ncnc2[nH]cnc12)c1nc2cccc(Cl)c2c(=O)n1-c1cc(F)cc(F)c1; 78
CCC(Nc1ncnc2[nH]cnc12)c1nc2ccccc2c(=O)n1-c1ccccc1 (stereo not shown); 74
CCC(Nc1ncnc2[nH]cnc12)c1nc2cccc(Cl)c2c(=O)n1-c1c(F)cccc1F (stereo not shown); 72

Query molecule follows.
Query block: # lookup: UniProt P42338 Beta-Delta Ratio, key = CCC(Nc1ncnc2[nH]cnc12)c1nc2cccc(C)c2c(=O)n1-c1cc(F)cc(F)c1 (stereo not shown)
Result block: 94

* * *

study_target: PI3Kα (Homo sapiens (Human))
Sequence (P42336 whole entry): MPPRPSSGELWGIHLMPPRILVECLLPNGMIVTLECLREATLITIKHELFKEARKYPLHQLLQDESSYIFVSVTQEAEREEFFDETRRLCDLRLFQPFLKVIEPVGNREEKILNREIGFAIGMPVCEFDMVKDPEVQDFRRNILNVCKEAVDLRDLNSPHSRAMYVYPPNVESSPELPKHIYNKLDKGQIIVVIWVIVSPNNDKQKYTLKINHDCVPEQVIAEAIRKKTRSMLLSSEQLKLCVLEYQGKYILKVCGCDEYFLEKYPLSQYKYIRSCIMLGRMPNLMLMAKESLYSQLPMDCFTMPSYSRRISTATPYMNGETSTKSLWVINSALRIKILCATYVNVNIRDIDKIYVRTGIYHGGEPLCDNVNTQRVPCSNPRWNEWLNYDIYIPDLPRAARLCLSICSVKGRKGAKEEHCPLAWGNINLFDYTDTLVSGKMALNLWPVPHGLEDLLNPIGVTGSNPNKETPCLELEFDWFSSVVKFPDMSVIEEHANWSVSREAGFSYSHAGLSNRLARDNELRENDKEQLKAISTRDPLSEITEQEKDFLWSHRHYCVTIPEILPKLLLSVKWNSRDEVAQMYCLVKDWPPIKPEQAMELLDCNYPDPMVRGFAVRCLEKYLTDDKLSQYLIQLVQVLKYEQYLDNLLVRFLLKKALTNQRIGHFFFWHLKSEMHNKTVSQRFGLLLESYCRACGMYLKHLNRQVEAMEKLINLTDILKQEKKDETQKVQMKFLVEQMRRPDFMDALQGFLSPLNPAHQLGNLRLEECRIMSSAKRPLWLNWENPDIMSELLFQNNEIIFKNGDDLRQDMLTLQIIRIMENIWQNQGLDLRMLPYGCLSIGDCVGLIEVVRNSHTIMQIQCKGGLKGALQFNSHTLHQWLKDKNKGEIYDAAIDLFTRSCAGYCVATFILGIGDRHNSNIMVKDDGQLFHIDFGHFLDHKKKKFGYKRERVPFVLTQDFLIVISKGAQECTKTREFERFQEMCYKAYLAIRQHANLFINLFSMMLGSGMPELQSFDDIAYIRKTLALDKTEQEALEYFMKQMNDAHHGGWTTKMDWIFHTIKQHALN
Sequence (P27986 whole entry partner): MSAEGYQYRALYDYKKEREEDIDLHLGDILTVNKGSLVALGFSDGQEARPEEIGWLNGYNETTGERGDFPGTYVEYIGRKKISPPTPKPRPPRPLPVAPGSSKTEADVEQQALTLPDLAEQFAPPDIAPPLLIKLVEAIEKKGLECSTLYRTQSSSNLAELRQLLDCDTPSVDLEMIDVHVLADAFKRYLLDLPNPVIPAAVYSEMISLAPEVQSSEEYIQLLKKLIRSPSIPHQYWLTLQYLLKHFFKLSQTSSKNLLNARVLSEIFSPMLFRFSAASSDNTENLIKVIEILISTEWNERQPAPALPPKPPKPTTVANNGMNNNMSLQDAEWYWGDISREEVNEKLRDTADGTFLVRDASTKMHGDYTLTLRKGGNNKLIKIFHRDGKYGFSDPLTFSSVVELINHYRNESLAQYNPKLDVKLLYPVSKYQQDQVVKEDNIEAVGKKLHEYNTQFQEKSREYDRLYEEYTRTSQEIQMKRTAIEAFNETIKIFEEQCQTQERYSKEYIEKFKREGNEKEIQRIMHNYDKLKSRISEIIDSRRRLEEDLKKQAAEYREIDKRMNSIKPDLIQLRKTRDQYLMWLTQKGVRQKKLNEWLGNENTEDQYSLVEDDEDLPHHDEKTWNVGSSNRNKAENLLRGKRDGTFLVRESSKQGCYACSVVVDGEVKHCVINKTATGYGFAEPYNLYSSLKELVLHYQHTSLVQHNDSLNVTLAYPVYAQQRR
assay_notes: Biochemical assay of PI3K selectivity (PI3Kα)
experimental_setup: ratio of IC50 for PI3Kα relative to PI3Kδ
value_type: Alpha-Delta Ratio

CCC(Nc1ncnc2[nH]cnc12)c1nc2cccc(C)c2c(=O)n1-c1cc(F)cc(F)c1 (stereo not shown) [Compound 93]; 721

Query block: # lookup: PI3Kα (Homo sapiens (Human)) Alpha-Delta Ratio, key = CC[C@H](Nc1ncnc2[nH]cnc12)c1nc2cccc(Cl)c2c(=O)n1-c1cc(F)cc(F)c1 [Compound 117]
Result block: 662

Query block: # lookup: PI3Kα (Homo sapiens (Human)) Alpha-Delta Ratio, key = CCC(Nc1ncnc2[nH]cnc12)c1nc2ccccc2c(=O)n1-c1ccccc1 (stereo not shown) [Compound 98]
Result block: 608

Query block: # lookup: PI3Kα (Homo sapiens (Human)) Alpha-Delta Ratio, key = CCC(Nc1ncnc2[nH]cnc12)c1nc2cccc(Cl)c2c(=O)n1-c1c(F)cccc1F (stereo not shown) [Compound 174]
Result block: 250

* * *

study_target: PI3Kδ (Homo sapiens (Human))
Sequence (O00329 whole entry S253N): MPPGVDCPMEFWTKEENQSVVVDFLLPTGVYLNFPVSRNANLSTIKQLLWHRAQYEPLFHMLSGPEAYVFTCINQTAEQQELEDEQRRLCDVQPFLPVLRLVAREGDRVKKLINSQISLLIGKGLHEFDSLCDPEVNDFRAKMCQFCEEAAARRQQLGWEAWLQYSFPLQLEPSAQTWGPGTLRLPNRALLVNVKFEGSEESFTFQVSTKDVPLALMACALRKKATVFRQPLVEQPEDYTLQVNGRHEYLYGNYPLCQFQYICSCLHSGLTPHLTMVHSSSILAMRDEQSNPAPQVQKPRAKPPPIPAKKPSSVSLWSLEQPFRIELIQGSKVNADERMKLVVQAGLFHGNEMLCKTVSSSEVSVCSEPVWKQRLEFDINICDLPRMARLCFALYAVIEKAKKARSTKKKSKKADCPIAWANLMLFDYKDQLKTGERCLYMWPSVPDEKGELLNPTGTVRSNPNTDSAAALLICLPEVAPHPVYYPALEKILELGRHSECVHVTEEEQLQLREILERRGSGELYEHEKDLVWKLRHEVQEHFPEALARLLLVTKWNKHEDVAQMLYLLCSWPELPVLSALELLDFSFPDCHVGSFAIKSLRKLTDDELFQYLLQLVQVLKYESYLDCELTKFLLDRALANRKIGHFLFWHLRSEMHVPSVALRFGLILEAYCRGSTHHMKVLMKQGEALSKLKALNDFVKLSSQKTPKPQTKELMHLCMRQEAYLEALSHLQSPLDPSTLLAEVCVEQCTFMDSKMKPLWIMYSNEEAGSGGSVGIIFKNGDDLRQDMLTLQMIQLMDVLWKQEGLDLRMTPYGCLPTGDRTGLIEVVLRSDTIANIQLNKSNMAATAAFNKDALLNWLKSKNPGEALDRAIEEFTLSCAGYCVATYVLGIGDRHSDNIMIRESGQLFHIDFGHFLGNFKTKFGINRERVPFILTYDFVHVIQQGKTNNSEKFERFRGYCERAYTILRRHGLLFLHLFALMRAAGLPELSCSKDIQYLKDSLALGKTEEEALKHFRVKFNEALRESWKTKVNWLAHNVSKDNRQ
Sequence (P27986 whole entry partner): as the sequence (P27986 whole entry partner) above
assay_notes: Biochemical assay of PI3K potency using 20 μM ATP (PI3Kδ)
experimental_setup: read-out: Delta IC50
value_type: IC50 (nM)
// units = nM; emit number, no label

Please review the following examples before continuing.
CCC(Nc1ncnc2[nH]cnc12)c1nc2ccccc2c(=O)n1-c1ccccc1 (stereo not shown); 16
CC[C@H](Nc1ncnc2[nH]cnc12)c1nc2cccc(Cl)c2c(=O)n1-c1cc(F)cc(F)c1; 12
CCC(Nc1ncnc2[nH]cnc12)c1nc2cccc(C)c2c(=O)n1-c1cc(F)cc(F)c1 (stereo not shown); 26

Query compound follows.
Query block: # return recorded IC50 for input CCC(Nc1ncnc2[nH]cnc12)c1nc2cccc(Cl)c2c(=O)n1-c1c(F)cccc1F (stereo not shown)
Result block: 45
